- Test system: VCaP cells
- experimental_protocol: Anti-proliferative toxicity against prostate cancer cell line Vcap (CCK8)
- Assay type: cell-based, human
- condition_description: Homo sapiens, 72 h, 3 days, CCK8
- Protocol: Example 82: Detection of Anti-Proliferative Toxicity Against Prostate Cancer Cell Lines Vcap, 22Rv1, and PC-3 […] After the above-treated cells were cultured for 3 days, 10 μL of the CCK8 solution (DOJINDO, Cat. No. PF725) was added to each well. The plate was incubated in an incubator at 37° C. for 1-4 h and then detected on a microplate reader for the reading at 450 nm.
pIC50: −log10 of the molar value.
metric_name: pIC50

Field: example entries. Status: answers known.
Record request: pIC50 value, item C[C@]12C=CC(=O)N[C@@H]1CC[C@@H]1[C@@H]2CC[C@]2(C)[C@@H](C(=O)Nc3cccc(N4CCC(CN5CCN(c6ccc7c(c6)C(=O)N(C6CCC(=O)NC6=O)C7=O)CC5)CC4)c3)CC[C@@H]12 (stereo partly drawn)
< 6.00

Record request: pIC50 value, item C[C@]12C=CC(=O)N[C@@H]1CC[C@@H]1[C@@H]2CC[C@]2(C)[C@@H](C(=O)NCCCCCNc3cccc4c3C(=O)N(C3CCC(=O)NC3=O)C4=O)CC[C@@H]12 (stereo partly drawn)
< 6.00

Record request: pIC50 value, item C[C@]12C=CC(=O)N[C@@H]1CC[C@@H]1[C@@H]2CC[C@]2(C)[C@@H](C(=O)Nc3cccc(N[C@@H]4CNC[C@@H](Nc5cccc6c5C(=O)N(C5CCC(=O)NC5=O)C6=O)C4)c3)CC[C@@H]12 (stereo partly drawn)
6.00 to 8.00

# per-item lookup of pIC50; items listed below
1. C[C@]12C=CC(=O)N[C@@H]1CC[C@@H]1[C@@H]2CC[C@]2(C)[C@@H](C(=O)Nc3cccc(N4CCC(CNc5cccc6c5C(=O)N(C5CCC(=O)NC5=O)C6=O)CC4)c3)CC[C@@H]12 (stereo partly drawn)
2. C[C@]12C=CC(=O)N[C@@H]1CC[C@@H]1[C@@H]2CC[C@]2(C)[C@@H](C(=O)NCCCCNc3cccc4c3C(=O)N(C3CCC(=O)NC3=O)C4=O)CC[C@@H]12 (stereo partly drawn)
3. CC(C)(C)C(=O)OCN1C(=O)CC[C@H](N2C(=O)c3cccc(N[C@@H]4CCC[C@@H](Nc5cccc(NC(=O)[C@H]6CC[C@H]7[C@@H]8CC[C@H]9NC(=O)C=C[C@]9(C)[C@H]8CC[C@]67C)c5)C4)c3C2=O)C1=O
4. Cc1ccc(NC(=O)[C@H]2CC[C@H]3[C@@H]4CC[C@H]5NC(=O)C=C[C@]5(C)[C@H]4CC[C@]23C)cc1OCCCNc1cccc2c1C(=O)N(C1CCC(=O)NC1=O)C2=O (stereo partly drawn)

< 6.00
< 6.00
≥ 10.00
< 6.00

# per-item lookup of pIC50; items listed below
1. C[C@]12C=CC(=O)N[C@@H]1CC[C@@H]1[C@@H]2CC[C@]2(C)[C@@H](C(=O)Nc3cccc(NC4CCCC(Nc5cccc6c5C(=O)N(C5CCC(=O)NC5=O)C6=O)C4)c3)CC[C@@H]12 (stereo partly drawn)
2. C[C@]12C=CC(=O)N[C@@H]1CC[C@@H]1[C@@H]2CC[C@]2(C)[C@@H](C(=O)Nc3cccc(OCC4CCN(c5cccc6c5C(=O)N(C5CCC(=O)NC5=O)C6=O)CC4)c3)CC[C@@H]12 (stereo partly drawn)
3. C[C@]12C=CC(=O)N[C@@H]1CC[C@@H]1[C@@H]2CC[C@]2(C)[C@@H](C(=O)Nc3ccc(OCCNc4ccc5c(c4)C(=O)N(C4CCC(=O)NC4=O)C5=O)nc3)CC[C@@H]12 (stereo partly drawn)
4. C[C@]12C=CC(=O)N[C@@H]1CC[C@@H]1[C@@H]2CC[C@]2(C)[C@@H](C(=O)Nc3cccc(OCCCCCCCNc4cccc5c4C(=O)N(C4CCC(=O)NC4=O)C5=O)c3)CC[C@@H]12 (stereo partly drawn)
5. C[C@]12C=CC(=O)N[C@@H]1CC[C@@H]1[C@@H]2CC[C@]2(C)[C@@H](C(=O)Nc3cccc(OCCNc4cccc5c4C(=O)N(C4CCC(=O)NC4=O)C5=O)c3)CC[C@@H]12 (stereo partly drawn)

8.00 to 10.00
< 6.00
6.00 to 8.00
< 6.00
6.00 to 8.00
